Test system: Plasmodium berghei
Test: Luciferase/luciferin-expressing antifolate-resistant parasites were used to infect a culture of HepG2 cells that were pre-incubated with compounds. Infected hepatocytes emit light due to the luciferase reaction. Assay results are presented as the percent inhibition of light emission compared to control. […]
Assay type: functional
Settings: sporozoite, FFLUC_HILL_SLOPE 0.529, FFLUC_R_SQUARED 0.712, HEPG2TOX_HILL_SLOPE 1.8, HEPG2TOX_R_SQUARED 0.756, PBLUC_HILL_SLOPE 12.3, PBLUC_R_SQUARED 0.402, read-out: LUCIFERASE INFECTION ASSAY - IC50
Readout Name: IC50 (µM)

• COc1ccc2c(C(=O)N/N=C/c3cc(Br)c4ccccc4c3O)cccc2c1 = 3.05

###

Tested on: Plasmodium berghei
Test: Luciferase/luciferin-expressing antifolate-resistant parasites were used to infect a culture of HepG2 cells that were pre-incubated with compounds. Infected hepatocytes emit light due to the luciferase reaction. Assay results are presented as the percent inhibition of light emission compared to control. […]
Assay type: functional
Conditions: sporozoite, HEPG2TOX_HILL_SLOPE 0.615, HEPG2TOX_R_SQUARED 0.878, PBLUC_HILL_SLOPE 1.43, PBLUC_R_SQUARED 0.575, read-out: LUCIFERASE INFECTION ASSAY - IC50
Readout Name: IC50 (nM)

* Fc1ccc(-c2csc3ncnc(NCc4ccc(CN5CCOCC5)cc4)c23)cc1 | 1590

###

System: Plasmodium berghei
Experiment: Luciferase/luciferin-expressing antifolate-resistant parasites were used to infect a culture of HepG2 cells that were pre-incubated with compounds. Infected hepatocytes emit light due to the luciferase reaction. Assay results are presented as the percent inhibition of light emission compared to control. […]
Type: functional
Details: sporozoite, HEPG2TOX_HILL_SLOPE 9.08, HEPG2TOX_R_SQUARED 0.57, PBLUC_HILL_SLOPE 3.67, PBLUC_R_SQUARED 0.581, read-out: LUCIFERASE INFECTION ASSAY - IC50
Readout Name: IC50 (µM)

• CCC(C)(C)c1ccc(Oc2ccc(NC(=O)CSc3nnc(-c4ccccc4)[nH]3)cc2)cc1 = 4.28

###

System: Plasmodium berghei
Test: Luciferase/luciferin-expressing antifolate-resistant parasites were used to infect a culture of HepG2 cells that were pre-incubated with compounds. Infected hepatocytes emit light due to the luciferase reaction. Assay results are presented as the percent inhibition of light emission compared to control. […]
Assay type: functional
Settings: sporozoite, FFLUC_HILL_SLOPE 14.5, FFLUC_R_SQUARED 0.631, HEPG2TOX_HILL_SLOPE 1.37, HEPG2TOX_R_SQUARED 0.939, PBLUC_HILL_SLOPE 1.1, PBLUC_R_SQUARED 0.834, read-out: LUCIFERASE INFECTION ASSAY - IC50
pIC50: −log10 of the molar value.
Readout Name: pIC50

• COc1ccc(Nc2n[nH]c(NC(=O)Cc3c(Cl)cccc3Cl)c2C#N)cc1 = 7.16

###

System: Plasmodium berghei
Experiment: Luciferase/luciferin-expressing antifolate-resistant parasites were used to infect a culture of HepG2 cells that were pre-incubated with compounds. Infected hepatocytes emit light due to the luciferase reaction. Assay results are presented as the percent inhibition of light emission compared to control. […]
Format: functional
Details: sporozoite, FFLUC_HILL_SLOPE 2.15, FFLUC_R_SQUARED 0.39, read-out: LUCIFERASE INFECTION ASSAY - IC50
Readout Name: IC50

* COc1ccc(-c2nnc(SCn3nnc4ccccc4c3=O)n2-c2ccccc2C(C)C)cc1 | > 10 µM

###

Tested on: Plasmodium berghei
Assay: Luciferase/luciferin-expressing antifolate-resistant parasites were used to infect a culture of HepG2 cells that were pre-incubated with compounds. Infected hepatocytes emit light due to the luciferase reaction. Assay results are presented as the percent inhibition of light emission compared to control. […]
Format: functional
Conditions: sporozoite, FFLUC_HILL_SLOPE 1.69, FFLUC_R_SQUARED 0.486, read-out: LUCIFERASE INFECTION ASSAY - IC50
Readout Name: IC50

* CCc1ccc(NC(=O)CN(c2cccc3ccccc23)S(=O)(=O)c2ccc(C)c(C)c2)cc1 | > 10 µM

###

Tested on: Plasmodium berghei
Assay: Luciferase/luciferin-expressing antifolate-resistant parasites were used to infect a culture of HepG2 cells that were pre-incubated with compounds. Infected hepatocytes emit light due to the luciferase reaction. Assay results are presented as the percent inhibition of light emission compared to control. […]
Format: functional
Conditions: sporozoite, FFLUC_HILL_SLOPE 2.45, FFLUC_R_SQUARED 0.636, PBLUC_HILL_SLOPE 2.61, PBLUC_R_SQUARED 0.591, read-out: LUCIFERASE INFECTION ASSAY - IC50
Readout Name: IC50

- O=C(N/N=C/c1c(-c2ccccc2)n(-c2ccccc2)c2ccccc12)C1COc2ccccc2O1 (stereo unspecified): 5.83 µM

###

Tested on: Plasmodium berghei
Test: Luciferase/luciferin-expressing antifolate-resistant parasites were used to infect a culture of HepG2 cells that were pre-incubated with compounds. Infected hepatocytes emit light due to the luciferase reaction. Assay results are presented as the percent inhibition of light emission compared to control. […]
Type: functional
Conditions: sporozoite, HEPG2TOX_HILL_SLOPE 2.07, HEPG2TOX_R_SQUARED 0.932, PBLUC_HILL_SLOPE 9.26, PBLUC_R_SQUARED 0.304, read-out: LUCIFERASE INFECTION ASSAY - IC50
pIC50: −log10 of the molar value.
Readout Name: pIC50

• CCN1C(=O)N(Cc2cccc(OC)c2)C(=O)C12CCN(Cc1cnc(-c3ccccc3)s1)CC2 = 5.24

###

System: Plasmodium berghei
Test: Luciferase/luciferin-expressing antifolate-resistant parasites were used to infect a culture of HepG2 cells that were pre-incubated with compounds. Infected hepatocytes emit light due to the luciferase reaction. Assay results are presented as the percent inhibition of light emission compared to control. […]
Format: functional
Settings: sporozoite, HEPG2TOX_HILL_SLOPE 4.52, HEPG2TOX_R_SQUARED 0.977, PBLUC_HILL_SLOPE 3.23, PBLUC_R_SQUARED 0.385, read-out: LUCIFERASE INFECTION ASSAY - IC50
Readout Name: IC50 (µM)

• O=C1c2ccccc2C(O)(C#Cc2ccccc2)N1c1ccccc1 (stereo unspecified) = 4.28

###

System: Plasmodium berghei
Experiment: Luciferase/luciferin-expressing antifolate-resistant parasites were used to infect a culture of HepG2 cells that were pre-incubated with compounds. Infected hepatocytes emit light due to the luciferase reaction. Assay results are presented as the percent inhibition of light emission compared to control. […]
Format: functional
Details: sporozoite, PBLUC_HILL_SLOPE 6.87, PBLUC_R_SQUARED 0.748, read-out: LUCIFERASE INFECTION ASSAY - IC50
Readout Name: IC50 (µM)

• CCCS(=O)(=O)/C(C#N)=N/Nc1cc(C(F)(F)F)cc(C(F)(F)F)c1 = 3.21

###

Tested on: Plasmodium berghei
Experiment: Luciferase/luciferin-expressing antifolate-resistant parasites were used to infect a culture of HepG2 cells that were pre-incubated with compounds. Infected hepatocytes emit light due to the luciferase reaction. Assay results are presented as the percent inhibition of light emission compared to control. […]
Type: functional
Conditions: sporozoite, HEPG2TOX_HILL_SLOPE 2.86, HEPG2TOX_R_SQUARED 0.877, PBLUC_HILL_SLOPE 1.38, PBLUC_R_SQUARED 0.733, read-out: LUCIFERASE INFECTION ASSAY - IC50
pIC50: −log10 of the molar value.
Readout Name: pIC50

- O=C(Nc1ccc(Cl)c(Cl)c1)Nc1ccc(Cl)c(Cl)c1: 6.56

###

Test system: Plasmodium berghei
Test: Luciferase/luciferin-expressing antifolate-resistant parasites were used to infect a culture of HepG2 cells that were pre-incubated with compounds. Infected hepatocytes emit light due to the luciferase reaction. Assay results are presented as the percent inhibition of light emission compared to control. […]
Format: functional
Settings: sporozoite, PBLUC_HILL_SLOPE 18.6, PBLUC_R_SQUARED 0.124, read-out: LUCIFERASE INFECTION ASSAY - IC50
pIC50: −log10 of the molar value.
Readout Name: pIC50

* O=C(Nc1nn[nH]n1)c1ccc(S(=O)(=O)N2CCCCCC2)cc1 | 5.05

###

Test system: Plasmodium berghei
Experiment: Luciferase/luciferin-expressing antifolate-resistant parasites were used to infect a culture of HepG2 cells that were pre-incubated with compounds. Infected hepatocytes emit light due to the luciferase reaction. Assay results are presented as the percent inhibition of light emission compared to control. […]
Assay type: functional
Conditions: sporozoite, read-out: LUCIFERASE INFECTION ASSAY - IC90
Readout Name: IC90

- CCOC(=O)c1sc(N2CCCC2)c2c1CC(C)(C)CC2=O: > 10.3 µM
- Cc1ccc(C)c(S(=O)(=O)N(Cc2nnc(-c3ccc(Cl)cc3)o2)c2cccc(C(F)(F)F)c2)c1: > 10 µM
- Cc1ccnc(NC(c2cccc(C)n2)c2ccc3cccnc3c2O)c1 (stereo not given): > 9.26 µM
- Cc1cccc2sc(NC(=O)c3cccc(S(=O)(=O)N4CCc5ccccc54)c3)nc12: > 10 µM
- Fc1ccc(COc2ccc(Cl)cc2CNCc2ccccn2)cc1: > 9.25 µM
- O=C(NC1=C(Nc2ccc3c(c2)OCCO3)C(=O)c2ccccc2C1=O)c1ccc(Cl)cc1: > 10 µM
- O=C(Cn1cnc2c(cnn2-c2ccccc2)c1=O)c1c[nH]c2ccccc12: > 10 µM
- c1cncc(-c2cn3c(-c4ccsc4)cnc3cn2)c1: > 11.9 µM
- COc1ccc(NCc2csc(-c3ccccc3)n2)cc1Cl: > 10 µM
- CCCCNC1=C(NS(=O)(=O)c2ccc(NC(C)=O)cc2)C(=O)c2ccccc2C1=O: > 10 µM

Origin of measurements: ChEMBL document CHEMBL4483862
